Tested on: U251 CNS
Test: NCI tumour cell line growth inhibition, 48 h
Reported TGI is given for each of the following compounds.

# compound, experimental.system, TGI
rows = [
    ("Nc1[nH]c(=S)c2c(N)n[nH]c2c1C(=O)Nc1ccccc1", "U251 CNS", "> 100 µM"),
    ("COC(=O)C1CCCN1C(=O)[C@@H]1CCCN1C(=O)[C@H](Cc1c[nH]c2ccccc12)NC(=S)Nc1cc(C(F)(F)F)cc(C(F)(F)F)c1 (stereo partly drawn)", "U251 CNS", "3.81 µM"),
    ("NC1=C(c2nc(-c3ccccc3)cs2)C(c2ccc(Br)cc2)c2c(c3ccccc3oc2=O)O1 (stereo not drawn)", "U251 CNS", "> 150 µg/mL"),
    ("CN(C)CCCNc1c(C#N)[n+]([O-])c2cc(Cl)ccc2[n+]1[O-]", "U251 CNS", "> 66.6 µM"),
    ("COc1ccc(CC(=O)NCCc2ccc(OC)c(OC)c2)cc1Br", "U251 CNS", "> 100 µM"),
    ("COc1ccccc1N1CCN(CCc2c[nH]c3cc4c(cc23)OCO4)CC1", "U251 CNS", "> 100 µM"),
    ("COc1ccc(C(=O)O)c2c(=O)c3cccnc3[nH]c12", "U251 CNS", "> 100 µM"),
    ("COc1cc(C(O)C(=O)c2nc3ccc([N+](=O)[O-])cc3[nH]c2=O)ccc1O (stereo not drawn)", "U251 CNS", "> 100 µM"),
    ("Cc1sc2nc(-c3ccc([N+](=O)[O-])cc3)c(/C=N/N=C(N)N)n2c1C", "U251 CNS", "0.358 µM"),
    ("CCCC/C=C1\\CCC(C)(CN(C)C)C1=O (stereo not drawn)", "U251 CNS", "> 100 µM"),
    ("Nc1nc2n[nH]nc2c(=O)[nH]1", "U251 CNS", "> 100 µM"),
    ("COC(=O)[C@@H](NC(=O)N(CCC#N)CCCN(C(=O)N[C@H](Cc1ccccc1)C(=O)OC)c1ccccc1)C(C)C", "U251 CNS", "> 100 µM"),
    ("CCOC(=O)[C@@H]1CCN2CN(c3ccc(OC)cc3)N=C(c3ccccc3)[C@@]12c1ccccc1", "U251 CNS", "79.6 µM"),
    ("Cc1ccc(C2=C(C#N)C(=O)N3CCN=C3S2)cc1", "U251 CNS", "> 100 µM"),
    ("CC1=C(C(=O)N(C(C)C)C(C)C)CC(C(=O)N(C(C)C)C(C)C)=C(C)N1", "U251 CNS", "> 100 µM"),
    ("CC1OC(OC2C(OC(=O)[C@@H]3CC(C)(C)C[C@@H]4C5=CC[C@@H]6[C@@]7(C)C[C@H](O)[C@H](OC8OC(CO)C(O)C(O)C8O)[C@@](C)(CO)C7[C@H](O)C[C@@]6(C)[C@]5(C)C[C@@H](O)[C@H]43)OCC(O)C2O)C(O)C(O)C1O (stereo partly drawn)", "U251 CNS", "> 15 µM"),
    ("Oc1ccccc1C=Nc1nc(SCc2ccccc2)nc2[nH]ncc12", "U251 CNS", "> 100 µM"),
    ("C/C=C(\\C)C(=O)OC1C(C)=C2C(C1OC(=O)CCCC)C(C)(OC(C)=O)CC(OC(=O)CCCC)C1(O)C2OC(=O)C1(C)O (stereo not drawn)", "U251 CNS", "> 100 µM"),
]
